Reference source: ChEMBL document CHEMBL4393666

System: Hepatitis C virus
METHOD: Antiviral activity against HCV genotype 1a H77 expressing NS5B measured after 3 days by bright-glo luciferase reporter gene assay
Type: functional, organism-based, Hepacivirus hominis
TEST_CONDITIONS: subtype 1a H77, 72 h
QUANTITY_KIND: EC50 (nM)
Give the number; nM is assumed, so skip it.

Q) Tell me its EC50 given CC(C)OC(=O)[C@H](C)N[P@](=O)(OC[C@@]1(F)O[C@@H](n2ccc(=O)[nH]c2=O)[C@](C)(O)[C@@H]1O)Oc1ccccc1 [ADAFOSBUVIR] as the entry.
A) 60

---

Consider the following compounds; for each one, report its inhibition at 100 µM.
TARGET_DESC: DNA polymerase beta (Homo sapiens, UniProt P06746)
METHOD: Inhibition of human DNA polymerase-beta assessed as reduction in [3H]dTTP incorporation in to activated calf thymus DNA substrate at 100 uM by scintillation counting method relative to control
TEST_CONDITIONS: human DNA polymerase-beta enzyme, probe [3H]dTTP
Give the number; % is assumed, so skip it.

Q) Name the value of inhibition at 100 µM reported for `C[C@@]1(O)[C@H](O)[C@@H](COP(=O)(O)OP(=O)(O)OP(=O)(O)O)O[C@H]1n1ccc(=O)[nH]c1=O` when tested on DNA polymerase beta (Homo sapiens, UniProt P06746).
A) -0.008

Q) Name the value of inhibition at 100 µM reported for C[C@]1(O)[C@H](n2ccc(=O)[nH]c2=O)O[C@](F)(COP(=O)(O)OP(=O)(O)OP(=O)(O)O)[C@H]1O [ADAFOSBUVIR 5'-TRIPHOSPHATE] when tested on DNA polymerase beta (Homo sapiens, UniProt P06746).
A) 12.6

Q) Name the value of inhibition at 100 µM reported for `O=c1ccn([C@@H]2O[C@H](COP(=O)(O)OP(=O)(O)OP(=O)(O)O)[C@@H](O)[C@]2(F)Cl)c(=O)[nH]1` when tested on DNA polymerase beta (Homo sapiens, UniProt P06746).
A) 24.7

Q) Name the value of inhibition at 100 µM reported for C[C@@]1(F)[C@H](O)[C@@H](COP(=O)(O)OP(=O)(O)OP(=O)(O)O)O[C@H]1n1ccc(=O)[nH]c1=O [GS-461203] when tested on DNA polymerase beta (Homo sapiens, UniProt P06746).
A) 14

Q) Name the value of inhibition at 100 µM reported for `C[C@]1(Cl)[C@H](n2ccc(=O)[nH]c2=O)O[C@](F)(COP(=O)(O)OP(=O)(O)OP(=O)(O)O)[C@H]1O` when tested on DNA polymerase beta (Homo sapiens, UniProt P06746).
A) 24.3

Q) Name the value of inhibition at 100 µM reported for `O=c1ccn([C@@H]2O[C@](F)(COP(=O)(O)OP(=O)(O)OP(=O)(O)O)[C@@H](O)[C@]2(F)Cl)c(=O)[nH]1` when tested on DNA polymerase beta (Homo sapiens, UniProt P06746).
A) 18.1

Q) Name the value of inhibition at 100 µM reported for `C[C@]1(F)[C@H](n2ccc(=O)[nH]c2=O)O[C@](F)(COP(=O)(O)OP(=O)(O)OP(=O)(O)O)[C@H]1O` when tested on DNA polymerase beta (Homo sapiens, UniProt P06746).
A) 15.2

Q) Name the value of inhibition at 100 µM reported for C[C@@]1(Cl)[C@H](O)[C@@H](COP(=O)(O)OP(=O)(O)OP(=O)(O)O)O[C@H]1n1ccc(=O)[nH]c1=O [4A-TP] when tested on DNA polymerase beta (Homo sapiens, UniProt P06746).
A) 22.6
